Molecular target: Human TASK-1 channels (Homo sapiens (Human), UniProt O14649)
Sequence (O14649 whole entry): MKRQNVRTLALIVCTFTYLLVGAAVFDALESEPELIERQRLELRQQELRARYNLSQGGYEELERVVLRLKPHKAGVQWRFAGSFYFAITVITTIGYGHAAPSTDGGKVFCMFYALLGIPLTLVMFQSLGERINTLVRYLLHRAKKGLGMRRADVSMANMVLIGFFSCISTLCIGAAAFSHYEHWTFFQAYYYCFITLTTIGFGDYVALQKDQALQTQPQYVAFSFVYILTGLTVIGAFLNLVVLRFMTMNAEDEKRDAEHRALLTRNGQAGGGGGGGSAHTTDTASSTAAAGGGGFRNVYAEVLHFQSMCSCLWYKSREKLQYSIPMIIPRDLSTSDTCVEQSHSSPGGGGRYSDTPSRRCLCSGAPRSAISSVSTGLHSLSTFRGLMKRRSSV
Assay: Determination of the activity on the TASK-1 channel in Xenopus oocytes (two-microelectrode voltage clamp)
Type: cell-based
Details: compound concentration 5 μM
# inhibition at 5 µM per record follows
Give the value, in units of %, as a plain number.

Please review the entries below; each comes with its answer.
COMPOUND	EXPERIMENTAL_TARGET	inhibition at 5 µM / %
CC[C@@H](NC(=O)c1cc(C(=O)N2CCC[C@H]2c2ccccc2)n2c1CCCC2)c1ccccc1 [16mn]	Human TASK-1 channels (Homo sapiens (Human), UniProt O14649)	92
CC(C)[C@@H](NC(=O)c1cc(C(=O)N2CCC[C@@H]2C)c2n1CCOC2)c1ccc(C#N)nc1 [16nm]	Human TASK-1 channels (Homo sapiens (Human), UniProt O14649)	77
CC(C)[C@@H](NC(=O)c1cc(C(=O)N2CCC[C@@H]2C)c2n1CCOC2)c1ccc(C(F)(F)F)nc1 [16po]	Human TASK-1 channels (Homo sapiens (Human), UniProt O14649)	71
CC[C@@H](NC(=O)c1cc(C(=O)N2CCC2C)n2c1COCC2)c1ccc(C(F)(F)F)nc1 (stereo partly drawn) [16pe]	Human TASK-1 channels (Homo sapiens (Human), UniProt O14649)	69

Recorded inhibition at 5 µM for C[C@H]1CCCN1C(=O)c1cc(C(=O)NCc2c(F)cc(F)cc2F)c2n1CCOC2 [16af] , please?
78

Reported inhibition at 5 µM for CC[C@@H](NC(=O)c1cc(C(=O)N2CCC[C@@H]2c2ccc(C(F)(F)F)nc2)n2c1COCC2)c1ccccc1 [16ga] : what is it?
67

Using the record for CC[C@@H](NC(=O)c1cc(C(=O)NC(C)c2nnnn2CC)n2c1COCC2)c1ccccc1 (stereo partly drawn) [16rr] , report its inhibition at 5 µM.
71

Quick one: inhibition at 5 µM for C[C@@H](NC(=O)c1cc(C(=O)N2CCC[C@@H]2C)n2c1COCC2)c1ccc(Cl)cc1 [16as] ?
87

State the recorded inhibition at 5 µM for this entry: CC[C@@H](NC(=O)c1cc(C(=O)N[C@H](CC)c2nccs2)n2c1COCC2)c1ccc(C(F)(F)F)nc1 (racemic) [16pd]
82

====

Each record here notes measured IC50.
Biological target: Human TASK-1 channels (Homo sapiens (Human))
Assay: Determination of the activity on the TASK-1 channel in Xenopus oocytes (two-microelectrode voltage clamp)
Conditions: human TASK-1 expressed in Xenopus oocytes, room temperature; read-out: IC50 value for TASK-1 inhibition
Experimental: Determination of the activity on the TASK-1 channel in Xenopus oocytes Human TASK-1 channels were expressed in Xenopus oocytes. For this purpose, oocytes were isolated from Xenopus laevis and defoliculated. […] After two days of TASK-1 protein expression, TASK-1 currents were measured by two-microelectrode voltage clamp. […] Oocytes were clamped to −90 mV and TASK-1 mediated currents were measured during 500 ms voltage pulses to 40 mV. […]
Give the number; nM is assumed, so skip it.

Below are worked cases with known answers.
MOLECULE	MEASURED_PROPERTY	RECORDED_NUMBER
CC[C@@H](NC(=O)c1cc(C(=O)N[C@@H](C)c2ccc(F)cc2)n2c1CCCC2)c1ccccc1 [16lt]	IC50	58
CC[C@@H](NC(=O)c1cc(C(=O)N[C@H](C)c2ccc(F)cc2)n2c1COCC2)c1ncccn1 [16dz]	IC50	220
CC(C)[C@@H](NC(=O)c1cc(C(=O)N[C@@H](C)c2ncccn2)c2n1CCOC2)c1ccc(F)cc1 (racemic) [16lr]	IC50	360

Request the reported IC50 associated with CC[C@@H](NC(=O)c1cc(C(=O)N2CCCC2C(C)(C)C)n2c1COCC2)c1ccccc1 (some centres unmarked) [16ex]
180

Which IC50 reading was recorded for the molecule CC[C@@H](NC(=O)c1cc(C(=O)N[C@H]2CCc3ccccc32)n2c1COCC2)c1ccccc1 [16gj] ?
48

Fill in: IC50 of CC[C@@H](NC(=O)c1cc(C(=O)NC(C2CC2)C2CC2)n2c1COCC2)c1ccc(C(F)(F)F)nc1 [16pa] is ___
1500

Would you mind telling me what IC50 value was observed for CC[C@@H](NC(=O)c1cc(C(=O)N2CCC[C@@H]2C)n2c1COCC2)c1cnc(C(F)(F)F)c(OC)c1 [16cw] ?
2400

Form field: reported IC50 of C[C@H]1CCCN1C(=O)c1cc(C(=O)NCc2c(F)cccc2F)c2n1CCOC2 [16y]
1000

====

Reported pIC50 by item:
Target: UniProtKB O14649
Test: Determination of the activity on the TASK-1 channel in Xenopus oocytes (two-microelectrode voltage clamp)
Conditions: human TASK-1 expressed in Xenopus oocytes, room temperature; read-out: IC50 value for TASK-1 inhibition
Please express pIC50 as -log10 of the molar concentration.

Solved cases below.
COMPOUND	MEASURED_PROPERTY	RECORDED_NUMBER
CC[C@@H](NC(=O)c1cc(C(=O)NC2CC2)n2c1COCC2)c1ccccc1 [16gi]	pIC50	5.89
CC[C@@H](NC(=O)c1cc(C(=O)N[C@H](C)C2CC2)n2c1COCC2)c1ccc(C(F)(F)F)nc1 [16nz]	pIC50	5.66
CC[C@@H](NC(=O)c1cc(C(=O)N2CCC[C@@H]2C)n2c1COCC2)c1cnc(Cl)c(Cl)c1 [16co]	pIC50	6.85
CC[C@@H](NC(=O)c1cc(C(=O)N2Cc3ccccc3C2)n2c1COCC2)c1ccccc1 [16ih]	pIC50	6.70
CC[C@@H](NC(=O)c1cc(C(=O)N2CCCC2C(C)(C)O)n2c1COCC2)c1ccccc1 (some centres unmarked) [16ew]	pIC50	5.43

Tell me the measured pIC50 of CC[C@@H](NC(=O)c1cc(C(=O)N2CCN(c3ccccn3)CC2)n2c1COCC2)c1ccccc1 [16fq] , please.
5.96

Recorded pIC50 for CC[C@@H](NC(=O)c1cc(C(=O)NCc2ccccc2S(C)(=O)=O)n2c1COCC2)c1ccccc1 [16gx] , please?
6.37

Item CC[C@@H](NC(=O)c1cc(C(=O)NC(C)c2cccc(S(=O)(=O)N(C)C)c2)n2c1COCC2)c1ccccc1 (some centres unmarked) [16rj] has what recorded pIC50?
5.96

====

Molecular target: Human TASK-1 channels (Homo sapiens (Human))
Test: Determination of the activity on the TASK-1 channel in Xenopus oocytes (two-microelectrode voltage clamp)
Conditions: human TASK-1 expressed in Xenopus oocytes, room temperature; read-out: IC50 value for TASK-1 inhibition
MEASURED_PROPERTY: IC50 (nM)
Lab book: enter the figure in nM, no units written.

// solved cases for IC50 follow
MOLECULE	UNITS	IC50
CC[C@@H](NC(=O)c1cc(C(=O)NCc2cccc(S(C)(=O)=O)c2)n2c1COCC2)c1ccccc1 [16gv]	nM	1310
CC[C@@H](NC(=O)c1cc(C(=O)N2CCC[C@@H]2CC(=O)OC(C)C)n2c1COCC2)c1ccccc1 [16fo]	nM	230
CC[C@@H](NC(=O)c1cc(C(=O)NC(C)c2ncccn2)n2c1COCC2)c1ccc(F)cc1Cl (stereo partly shown) [16np]	nM	170

Would you kindly look at the next entry?
Could you share which IC50 value was measured for CC[C@@H](NC(=O)c1cc(C(=O)NCC(C)(C)O)n2c1COCC2)c1ccccc1 [16jd] ?
2500

====

Target: Human TASK-1 channels (Homo sapiens (Human))
Assay: Determination of the activity on the TASK-1 channel in Xenopus oocytes (two-microelectrode voltage clamp)
Conditions: human TASK-1 expressed in Xenopus oocytes, room temperature; read-out: IC50 value for TASK-1 inhibition
// reported pIC50 per item
Formally, pIC50 is defined as -log10 of the concentration c, with c in mol/L.

MOLECULE	pIC50
CC[C@@H](NC(=O)c1cc(C(=O)N2CCC[C@@H]2COC(C)=O)n2c1COCC2)c1ccccc1 [16rg]	6.96
CCC(NC(=O)c1cc(C(=O)N[C@H](CC)c2ccccc2)c2n1CCOC2)c1nccs1 (stereo partly shown) [16ij]	6.77
CC[C@@H](NC(=O)c1cc(C(=O)N2CCC[C@@H]2C)n2c1COCC2)c1ccc(OC)c(Cl)c1 [16ch]	7.14

What value of pIC50 has been recorded for this entry: CC[C@@H](NC(=O)c1cc(C(=O)N2CCC[C@@H]2C)n2c1COCC2)c1ccc(C(F)F)cc1 [16au]
6.47

====

Biological target: Human TASK-1 channels (Homo sapiens (Human), UniProt O14649)
Assay: Determination of the activity on the TASK-1 channel in Xenopus oocytes (two-microelectrode voltage clamp)
Settings: human TASK-1 expressed in Xenopus oocytes, room temperature; read-out: IC50 value for TASK-1 inhibition
Mark each entry True if its IC50 sits below 100 nM, and False for all others.

COMPOUND	LABEL_VALUE
CC[C@@H](NC(=O)c1cc(C(=O)N[C@H](C)c2ccc(F)cc2)n2c1SCC2)c1ccccc1 [16kt]	True
CC[C@@H](NC(=O)c1cc(C(=O)N2CCC[C@@H]2C(=O)OC(C)C)n2c1COCC2)c1ccccc1 [16n]	False
CC[C@@H](NC(=O)c1cc(C(=O)N[C@H](C)c2ccc(F)cc2)n2c1CSC2)c1ccccc1 [16ky]	True
CC[C@@H](NC(=O)c1cc(C(=O)NCc2ccno2)n2c1COCC2)c1ccccc1 [16hf]	False
CC[C@@H](NC(=O)c1cc(C(=O)N[C@H](CC)c2ccccn2)n2c1COCC2)c1ccccc1 [16gr]	False

Check if IC50 falls below 100 nM for CC[C@@H](NC(=O)c1cc(C(=O)N2CCC[C@@H]2C)n2c1COCC2)c1ccccc1C(F)(F)F [16s] .
False

Problem: For the compound CC[C@@H](NC(=O)c1cc(C(=O)NCc2ccc(CC(=O)OC)cc2)n2c1COCC2)c1ccccc1 [16is] , is IC50 under 100 nM?
False

Does the reported IC50 of the following compound sit strictly below 100 nM? CC[C@@H](NC(=O)c1cc(C(=O)N2CCC[C@@H]2C)n2c1COCC2)c1ccccn1 [16ph]
False
